The entries below are paired with their reported EC50.
Molecular target: Growth hormone secretagogue receptor type 1 (Homo sapiens, UniProt Q92847)
Sequence (Q92847 whole entry): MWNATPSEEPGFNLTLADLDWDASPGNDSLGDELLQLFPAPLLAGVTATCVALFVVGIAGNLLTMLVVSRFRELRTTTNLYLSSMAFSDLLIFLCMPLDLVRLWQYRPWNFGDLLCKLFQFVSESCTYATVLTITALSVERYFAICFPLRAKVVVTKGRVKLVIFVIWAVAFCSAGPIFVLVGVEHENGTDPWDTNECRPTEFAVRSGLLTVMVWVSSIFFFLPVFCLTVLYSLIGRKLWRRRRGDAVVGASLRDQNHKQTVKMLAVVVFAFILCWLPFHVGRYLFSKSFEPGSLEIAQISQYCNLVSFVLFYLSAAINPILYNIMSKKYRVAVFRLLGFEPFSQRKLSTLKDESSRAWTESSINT
Assay: Agonist activity at GSHR by FLIPR assay
Hi! Could you send only the number? It should be in nM, unit omitted.

COc1cc2c(cc1N1CCNCC1)N(S(=O)(=O)c1ccc(-c3ccccn3)s1)CC2
63.1
COc1cc2c(cc1N1C[C@@H](C)N[C@@H](C)C1)N(S(=O)(=O)c1ccc(-c3ccon3)s1)CC2
2.51

Query: EC50; subject: COc1cc2c(cc1N1C[C@@H](C)N(C)[C@@H](C)C1)N(S(=O)(=O)c1cccc(Br)c1)CC2
126

Query: EC50; subject: COc1cc2c(cc1N1C[C@@H](C)N[C@@H](C)C1)N(S(=O)(=O)CCc1ccccc1Cl)CC2
5.01

Query: EC50; subject: COc1cc2c(cc1N1C[C@@H](C)N[C@@H](C)C1)N(S(=O)(=O)c1ccc(-c3ccccn3)cc1)CC2
0.2

Query: EC50; subject: COc1cc2c(cc1N1C[C@@H](C)N[C@@H](C)C1)N(S(=O)(=O)c1ccc3ccccc3c1)CC2
0.501

Query: EC50; subject: COc1cc2c(cc1N1C[C@H](C)NC(C)(C)C1)N(S(=O)(=O)c1ccc(-c3ccccn3)s1)CC2
0.794

Query: EC50; subject: COc1cc2c(cc1N1CCN[C@H](C)C1)N(S(=O)(=O)c1ccc(-c3ccccn3)s1)CC2
3.98

====

Molecular target: Growth hormone secretagogue receptor type 1 (Homo sapiens, UniProt Q92847)
Assay: Intrinsic activity at GSHR relative to human ghrelin
Assay type: functional
measure_name: Intrinsic activity
Number only, please.

Solved cases (3 shown):
COc1cc2c(cc1N1C[C@@H](C)NC(C)(C)C1)N(S(=O)(=O)c1ccc(-c3ccccn3)s1)CC2
0.8
COc1cc2c(cc1N1C[C@@H](C)N[C@@H](C)C1)N(S(=O)(=O)c1ccc(-c3ccon3)s1)CC2
0.9
COc1cc2c(cc1N1C[C@@H](C)N[C@@H](C)C1)N(S(=O)(=O)c1ccc3ccccc3c1)CC2
1

Query: Intrinsic activity; subject: COc1cc2c(cc1N1C[C@@H](C)N[C@@H](C)C1)N(S(=O)(=O)c1cccc(-c3ccccn3)c1)CC2
0.9

Query: Intrinsic activity; subject: COc1cc2c(cc1N1CCNC(C)(C)C1)N(S(=O)(=O)c1ccc(-c3ccccn3)s1)CC2
0.9

Query: Intrinsic activity; subject: COc1cc2c(cc1N1C[C@@H](C)N[C@@H](C)C1)N(S(=O)(=O)c1ccc(-c3ccccn3)s1)CC2
0.9

Query: Intrinsic activity; subject: COc1cc2c(cc1N1CCNCC1)N(S(=O)(=O)c1ccc(-c3ccccn3)s1)CC2
0.8

Query: Intrinsic activity; subject: COc1cc2c(cc1N1CCN[C@@H](C)C1)N(S(=O)(=O)c1ccc(-c3ccccn3)s1)CC2
1

====

Molecular target: 5-hydroxytryptamine receptor 1B (Homo sapiens)
Sequence (P28222 whole entry): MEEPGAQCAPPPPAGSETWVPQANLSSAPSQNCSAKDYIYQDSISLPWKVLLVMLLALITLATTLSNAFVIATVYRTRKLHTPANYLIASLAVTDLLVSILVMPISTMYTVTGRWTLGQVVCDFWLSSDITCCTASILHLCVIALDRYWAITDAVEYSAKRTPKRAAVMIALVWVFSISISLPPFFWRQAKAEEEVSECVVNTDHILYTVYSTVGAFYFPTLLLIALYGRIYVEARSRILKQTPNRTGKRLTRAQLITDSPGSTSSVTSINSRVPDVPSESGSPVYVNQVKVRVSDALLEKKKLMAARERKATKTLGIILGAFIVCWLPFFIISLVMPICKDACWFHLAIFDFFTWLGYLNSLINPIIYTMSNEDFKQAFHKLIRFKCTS
Assay: Binding affinity at 5HT1B receptor
measure_name: Ki (nM)
Hi! Could you send only the number? It should be in nM, unit omitted.

Lab note: need Ki with 5-hydroxytryptamine receptor 1B (Homo sapiens) for entry COc1cc2c(cc1N1C[C@@H](C)N(C)[C@@H](C)C1)N(S(=O)(=O)c1cccc(Br)c1)CC2 , please look it up.
2000

====

The entries below are paired with their reported Intrinsic activity.
Molecular target: Growth hormone secretagogue receptor type 1 (Homo sapiens, UniProt Q92847)
Assay: Intrinsic activity at GSHR relative to human ghrelin
Type: functional
Number only, please.

Solved cases (4 shown):
COc1cc2c(cc1N1CCN[C@H](C)C1)N(S(=O)(=O)c1ccc(-c3ccccn3)s1)CC2
1
COc1cc2c(cc1N1C[C@@H](C)N[C@@H](C)C1)N(S(=O)(=O)CCc1ccccc1Cl)CC2
0.9
CCOc1ccc(CC(=O)N2CCc3cc(OC)c(N4C[C@@H](C)N(C)[C@@H](C)C4)cc32)cc1Cl
0.7
COc1cc2c(cc1N1C[C@@H](C)N[C@@H](C)C1)N(S(=O)(=O)c1ccc(-c3ccccn3)cc1)CC2
1.1

Pending compound:
Query: Intrinsic activity; subject: COc1cc2c(cc1N1C[C@@H](C)N[C@@H](C)C1)N(S(=O)(=O)Cc1cccc(I)c1)CC2
0.8

====

Assay: Aqueous solubility at pH 7.4
Format: physicochemical
measure_name: solubility (µg/mL)
Hi! Could you send only the number? It should be in µg/mL, unit omitted.

Query: solubility; subject: COc1cc2c(cc1N1C[C@@H](C)N[C@@H](C)C1)N(S(=O)(=O)c1ccc(-c3ccccn3)s1)CC2
168

====

Assay: Cmax in rat at 1 mg/kg, iv
Assay type: ADME, organism-based
Set-up: dose 1 mg/kg, route intravenous
Conditions: in vivo
measure_name: Cmax (nM)
Hi! Could you send only the number? It should be in nM, unit omitted.

Query: Cmax; subject: COc1cc2c(cc1N1C[C@@H](C)N[C@@H](C)C1)N(S(=O)(=O)c1ccc(-c3ccccn3)s1)CC2
250

====

Experiment: Clearance in rat blood at 1 mg/kg, iv
Type: ADME, organism-based
Parameters: dose 1 mg/kg, route intravenous
Conditions: in vivo
measure_name: Clearance blood (mL/min/kg)
Hi! Could you send only the number? It should be in mL/min/kg, unit omitted.

Query: Clearance blood; subject: COc1cc2c(cc1N1C[C@@H](C)N[C@@H](C)C1)N(S(=O)(=O)c1ccc(-c3ccccn3)s1)CC2
64

====

Assay: Distribution coefficient, log D at pH 7.4
Assay type: physicochemical
Details: octanol/water
measure_name: logD
Number only, please.

Query: logD; subject: COc1cc2c(cc1N1C[C@@H](C)N[C@@H](C)C1)N(S(=O)(=O)c1ccc(-c3ccccn3)s1)CC2
1.8

====

The entries below are paired with their reported pEC50.
Target: Growth hormone secretagogue receptor type 1 (Homo sapiens, UniProt Q92847)
Assay: Agonist activity at GSHR by FLIPR assay
When answering, recall that pEC50 equals minus log10 of the concentration in mol/L, and write that number alone.

Solved cases (3 shown):
COc1cc2c(cc1N1CCNC(C)(C)C1)N(S(=O)(=O)c1ccc(-c3ccccn3)s1)CC2
7.80
COc1cc2c(cc1N1C[C@@H](C)N[C@@H](C)C1)N(S(=O)(=O)c1cccc(-c3ccccn3)c1)CC2
7.70
CCOc1ccc(CC(=O)N2CCc3cc(OC)c(N4C[C@@H](C)N(C)[C@@H](C)C4)cc32)cc1Cl
6.80

Pending molecule:
Lab note: need pEC50 with Growth hormone secretagogue receptor type 1 (Homo sapiens, UniProt Q92847) for entry COc1cc2c(cc1N1C[C@@H](C)N[C@@H](C)C1)N(S(=O)(=O)Cc1cccc(I)c1)CC2 , please look it up.
7.50

====

Assay: Volume of distribution in rat at 1 mg/kg, iv
Type: ADME, organism-based
Set-up: dose 1 mg/kg, route intravenous
Conditions: in vivo, read-out: Vdss
measure_name: Vd (L/kg)
Hi! Could you send only the number? It should be in L/kg, unit omitted.

Query: Vd; subject: COc1cc2c(cc1N1C[C@@H](C)N[C@@H](C)C1)N(S(=O)(=O)c1ccc(-c3ccccn3)s1)CC2
8.8

====

Biological target: Growth hormone secretagogue receptor type 1 (Homo sapiens)
Assay: Agonist activity at GSHR by FLIPR assay
Format: functional
measure_name: EC50 (nM)
Hi! Could you send only the number? It should be in nM, unit omitted.

Solved cases (3 shown):
COc1cc2c(cc1N1C[C@@H](C)N[C@@H](C)C1)N(S(=O)(=O)c1ccc(-c3ccccn3)s1)CC2
0.158
COc1cc2c(cc1N1C[C@@H](C)N(C)[C@@H](C)C1)N(S(=O)(=O)c1ccc3ccccc3c1)CC2
39.8
COc1cc2c(cc1N1C[C@@H](C)NC(C)(C)C1)N(S(=O)(=O)c1ccc(-c3ccccn3)s1)CC2
10

Query: EC50; subject: COc1cc2c(cc1N1CCN[C@@H](C)C1)N(S(=O)(=O)c1ccc(-c3ccccn3)s1)CC2
3.16

====

The entries below are paired with their reported Intrinsic activity.
Molecular target: Growth hormone secretagogue receptor type 1 (Homo sapiens, UniProt Q92847)
Assay: Intrinsic activity at GSHR relative to human ghrelin
Assay type: functional

Lab note: need Intrinsic activity with Growth hormone secretagogue receptor type 1 (Homo sapiens, UniProt Q92847) for entry COc1cc2c(cc1N1C[C@@H](C)N(C)[C@@H](C)C1)N(S(=O)(=O)c1cccc(Br)c1)CC2 , please look it up.
0.7

Lab note: need Intrinsic activity with Growth hormone secretagogue receptor type 1 (Homo sapiens, UniProt Q92847) for entry COc1cc2c(cc1N1C[C@H](C)NC(C)(C)C1)N(S(=O)(=O)c1ccc(-c3ccccn3)s1)CC2 , please look it up.
1

Lab note: need Intrinsic activity with Growth hormone secretagogue receptor type 1 (Homo sapiens, UniProt Q92847) for entry COc1cc2c(cc1N1C[C@@H](C)N(C)[C@@H](C)C1)N(S(=O)(=O)c1ccc3ccccc3c1)CC2 , please look it up.
0.8
